The entries below come with measured MIC values attached.
- Tested on: Staphylococcus aureus
- test.name: Antimicrobial activity against Staphylococcus aureus MTCC 96 incubated for 24 hrs by well diffusion method
- Type: functional
- measurement.context: MTCC 96, 24 h
assay.endpoint: MIC

{"compound": "CCCCCCC(C/C=C\\CCCCCCCC(=O)OC)/N=C\\c1cccc([N+](=O)[O-])c1 (stereo not drawn)", "experimental.system": "Staphylococcus aureus", "assay.endpoint": "MIC", "assay.value": "> 300 µM"}
{"compound": "CCCCCCC(C/C=C\\CCCCCCCC(=O)OC)/N=C\\c1ccc(C#N)cc1 (stereo not drawn)", "experimental.system": "Staphylococcus aureus", "assay.endpoint": "MIC", "assay.value": "> 300 µM"}
{"compound": "CCCCCCC(C/C=C\\CCCCCCCC(=O)OC)/N=C\\c1ccc(C)cc1 (stereo not drawn)", "experimental.system": "Staphylococcus aureus", "assay.endpoint": "MIC", "assay.value": "> 300 µM"}
